Each entry below carries its recorded z-score.
- experimental-details: modulators of S6 phosphorylation in cells, primary screen, cell-based, A549, cytoblot, luminescence, serum-stimulated (AID 1158);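 note: serum-stimulated A549 lung adenocarcinoma cells; signal is phosphorylated S6 detected by cytoblot immunostaining with HRP secondary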
- measurement-setup: A549 phospho-S6 cytoblot, 5 h, higher = more signal

Consider the following illustrative entries.
| compound | z-score |
| --- | --- |
| COCC1=C2[C@@H](CCc3ccccc3)OB(O)C[C@@H]2[C@@H]2C(=O)N(Cc3ccccc3)C(=O)[C@@H]2C1 | 0.533 |
| CCOC(=O)C1=CCC(c2ccc([N+](=O)[O-])cc2)N(S(=O)(=O)c2ccc(C)cc2)C1 (configuration not stated) | -0.864 |
| O=C1N(CCS(=O)(=O)c2ccccc2)c2ccccc2C[C@@]12COC(c1ccc(OCCCO)cc1)=N2 | -0.616 |
| CCOC(=O)C[C@H]1[C@H](OC(=O)Cc2ccc3c(c2)OCO3)[C@@H](NC(=O)c2ccc(-c3ccccc3)cc2)c2cc(OCCCO)ccc2N1C(=O)c1ccccc1 | -0.0321 |

Value of z-score reported for the compound `O=C1C=CC(=O)[C@@H]2CC(COc3ccccc3)=C3[C@@H](CCc4ccccc4)OB(O)C[C@@H]3[C@H]12` is 0.0482

Value of z-score reported for the compound CC(C)(C)N1CC=CC23O[C@@H]4/C=C\CCCOC(=O)C4[C@H]2C(=O)N(CCO)[C@@H]3C1=O (some centres not stated) is -0.495

Value of z-score reported for the compound `COCCOC(=O)N1C(=O)[C@@]2(c3cc(C#CCCO)ccc31)[C@H](c1ccc(O)cc1)N1[C@H](c3ccccc3)[C@H](c3ccccc3)OC(=O)[C@H]1[C@@H]2C(N)=O` is -0.218

###

- experimental-details: PSAC antagonists in infected red cells, primary screen, cell-based, P. falciparum Indochina, OD700, 1 h (AID 1154)
- measurement-setup: P. falciparum Indochina infected RBC osmotic lysis, higher = more signal, called active from +8 up or from −8 down
Each entry below carries its recorded z-score.
Form: value (number only, do not type unit).

Value of z-score reported for the molecule `C=CC[C@@]1(C(=O)N2CCOCC2)N=C(c2ccc(OCCCO)cc2)O[C@@H]1c1ccccc1N=[N+]=[N-]` is 35.1

Value of z-score reported for the molecule `C=C[C@H](C)[C@@H](O)c1ccc(O)c2ccccc12` is 1.01

Value of z-score reported for the molecule `COCCOC(=O)N1C(=O)[C@@]2(c3cc(C#CCNC(N)=O)ccc31)[C@H](C(=O)N1CCc3cc(OC)c(OC)cc3C1)[C@H]1C(=O)O[C@H](c3ccccc3)[C@H](c3ccccc3)N1[C@@H]2c1ccc(OCCO)cc1` is 3.93

Value of z-score reported for the molecule CCCCCN1CC=CC23O[C@@H]4/C=C\CCC(C)OC(=O)C4[C@H]2C(=O)N(CCCCCO)[C@@H]3C1=O (some centres undefined) is 0.42

Value of z-score reported for the molecule `C=C[C@@H](COC(C)=O)N(Cc1ccccc1[N+](=O)[O-])S(=O)(=O)c1ccc(Br)cc1` is 2.44

Value of z-score reported for the molecule O=C1C2C=CC(C(O)c3cccs3)N(Nc3ccccc3F)C2C(=O)N1c1ccccc1 (centres undefined) is 1.35

Value of z-score reported for the molecule `C=CCOC(=O)[C@@H]1[C@H]2C(=O)O[C@H](c3ccccc3)[C@H](c3ccccc3)N2[C@H](c2ccc(OCCOC(=O)[C@@H]3C[C@@H]4C(=O)N[C@@H](Cc5ccccc5)C(=O)N4[C@@H]3c3cccc(OCCO)c3)cc2)[C@@]12C(=O)Nc1ccc(I)cc12` is 9.36

Value of z-score reported for the molecule `O=C/C=C/c1ccc(Cl)cc1` is -0.406

Value of z-score reported for the molecule `C=C(COC)C(=O)CC[C@@H](OC(=O)c1cccnc1)c1ccc(CO)o1` is 1.47

Value of z-score reported for the molecule Cc1ccccc1C(O)C1C=CC2C(=O)N(C)C(=O)C2N1N1CCCCC1 (centres undefined) is 0.234

Value of z-score reported for the molecule `Cc1ccc(S[C@]2(C(=O)NCCN3CCOCC3)CC(=O)N(Cc3cc(C(F)(F)F)cc(C(F)(F)F)c3)[C@@H]2c2ccc(CO)cc2I)cc1` is 2.66

Value of z-score reported for the molecule COc1ccc(C(O)C2C=CC3C(=O)NC(=O)C3N2Nc2ccccn2)cc1OCc1ccccc1 (centres undefined) is 1.68

Value of z-score reported for the molecule `O=C1O[C@@H](c2ccccc2)[C@@H](c2ccccc2)N2[C@@H](c3ccc(OCCO)cc3)[C@]3(C(=O)Nc4ccc(C#CC5=CCCCC5)cc43)[C@@H](C(=O)O)[C@H]12` is -3.36

Value of z-score reported for the molecule `C=CCOC(=O)[C@H]1[C@@H]2C(=O)O[C@@H](c3ccccc3)[C@@H](c3ccccc3)N2[C@@H](c2ccc(OCCOC(=O)[C@@H]3C[C@@H]4C(=O)NCC(=O)N4[C@@H]3c3ccc(O)cc3)cc2)[C@]12C(=O)Nc1ccccc12` is 1.77
